Target System: T1, DR4G110: Human HLA-DRA1*01:02/DRB1*04:01 ECD with aggrecan peptide N1 (human)
T1 construct: also called DRB1*04:01 Aggrecan
Protocol Text: MSD ECL; antigen coated; protocol of Example 3
Parameter: ECL signal

Input DR4B6 (antibody, V domains shown, also called L243 re-engineered as IgG2sigma) VH: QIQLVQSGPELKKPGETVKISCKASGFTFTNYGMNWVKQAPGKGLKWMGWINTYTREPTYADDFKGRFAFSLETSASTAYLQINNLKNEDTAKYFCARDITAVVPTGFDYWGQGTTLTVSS VL: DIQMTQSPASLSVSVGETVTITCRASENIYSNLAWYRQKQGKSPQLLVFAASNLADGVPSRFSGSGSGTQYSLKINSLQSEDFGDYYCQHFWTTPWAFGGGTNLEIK , output reported ECL signal.
372000 ECL
